# Species: Homo sapiens
# protocol-summary: Binding affinity to 14C3 DNA triplex assessed as melting temperature change from duplex to single strand DNA forms by UV absorption spectrometry
Provide the reported ΔTm of each item.
Record the value in °C, omitting the unit from your answer.

*Q* Which ΔTm value belongs to CN(CCCN)c1cc2c(cc1F)C(=O)c1nc3ccccc3c(=O)n1-2 ?
*A* 2.8

*Q* Can you check CN(CCCN)c1ccc2c(c1)-n1c(nc3ccccc3c1=O)C2=O next?
*A* 3.3

*Q* Can you check NCCCNc1ccc2c(c1)-n1c(nc3ccccc3c1=O)C2=O next?
*A* 5.7

*Q* Can you check NCCCNc1cc2c(cc1F)C(=O)c1nc3ccccc3c(=O)n1-2 next?
*A* 4.8

###

# Species: Homo sapiens
# protocol-summary: Binding affinity to 14C3 DNA triplex assessed as melting temperature change from triplex to duplex DNA forms by UV absorption spectrometry
observation-type: ΔTm (°C)
Record the value in °C, omitting the unit from your answer.

*Q* Which ΔTm value belongs to NCCCNc1cc2c(cc1F)C(=O)c1nc3ccccc3c(=O)n1-2 ?
*A* 19.3

*Q* Can you check NCCCNc1ccc2c(c1)-n1c(nc3ccccc3c1=O)C2=O next?
*A* 13

*Q* Can you check CN(CCCN)c1ccc2c(c1)-n1c(nc3ccccc3c1=O)C2=O next?
*A* 18.8

*Q* Can you check CN(CCCN)c1cc2c(cc1F)C(=O)c1nc3ccccc3c(=O)n1-2 next?
*A* 24.8

###

Provide the reported Tm of each item.
# Species: Homo sapiens
# protocol-summary: Binding affinity to 14C3 DNA triplex assessed as melting temperature for transition from duplex to single strand DNA forms by UV absorption spectrometry

*Q* Which Tm value belongs to NCCCNc1ccc2c(c1)-n1c(nc3ccccc3c1=O)C2=O ?
*A* 64.7 °C

*Q* Can you check NCCCNc1cc2c(cc1F)C(=O)c1nc3ccccc3c(=O)n1-2 next?
*A* 63.8 °C

*Q* Can you check CN(CCCN)c1ccc2c(c1)-n1c(nc3ccccc3c1=O)C2=O next?
*A* 62.3 °C

*Q* Can you check CN(CCCN)c1cc2c(cc1F)C(=O)c1nc3ccccc3c(=O)n1-2 next?
*A* 61.8 °C

###

# Organism: Homo sapiens
# protocol-summary: Binding affinity to 14C3 DNA triplex assessed as melting temperature for transition from triplex to duplex DNA forms by UV absorption spectrometry
Provide the reported Tm of each item.

*Q* Which Tm value belongs to CN(CCCN)c1cc2c(cc1F)C(=O)c1nc3ccccc3c(=O)n1-2 ?
*A* 45.3 °C

*Q* Can you check NCCCNc1cc2c(cc1F)C(=O)c1nc3ccccc3c(=O)n1-2 next?
*A* 39.8 °C

*Q* Can you check NCCCNc1ccc2c(c1)-n1c(nc3ccccc3c1=O)C2=O next?
*A* 33.5 °C

*Q* Can you check CN(CCCN)c1ccc2c(c1)-n1c(nc3ccccc3c1=O)C2=O next?
*A* 39.3 °C
